Data credit: paper PMC12133982

molecular target: HLA-B1501 (Homo sapiens, UniProt P01889, A329T/A93T/A95T/C349S/D201E/D98Y/E187L/E204Q/E69M/E70A/K202T/N87E/Q94N/R155S/R180W/S121R/S35A/S48A/V306I/V36M/Y140S/Y91S); experiment: Competitive peptide binding assay, CIR-B1501; details: HMy2.CIR-B1501 cells, reference Cy5-[…], class from inhibition at 5 and 15 μM, flow cytometry MFI; read-out: Binding affinity with HLA-B1501
pIC50: −log10 of the molar value. Peptide text beside a SMILES is read from it.
Record form. Attribute: pIC50. Fill in for each entry.

Quote pIC50 reported for CC[C@H](C)[C@H](NC(=O)[C@@H](NC(=O)[C@H](CC(N)=O)NC(=O)[C@H](CCCNC(=N)N)NC(=O)[C@H](CCCCN)NC(=O)[C@@H](NC(=O)[C@H](Cc1ccc(O)cc1)NC(=O)[C@H](C)NC(=O)[C@@H](N)Cc1ccccc1)[C@@H](C)O)C(C)C)C(=O)O [Epitope Y276] (H-FAYTKRNVI-OH; N-terminus and C-terminus assumed) please.
< 4.82

Quote pIC50 reported for CC(C)C[C@H](NC(=O)[C@@H](NC(=O)[C@H](CCCNC(=N)N)NC(=O)[C@H](CO)NC(=O)[C@@H](NC(=O)[C@H](C)NC(=O)[C@@H](N)C(C)C)[C@@H](C)O)[C@@H](C)O)C(=O)N[C@@H](CO)C(=O)N[C@@H](Cc1ccc(O)cc1)C(=O)O [Epitope Y158] (H-VATSRTLSY-OH; N-terminus and C-terminus assumed) please.
> 5.30

---

Record form. Attribute: pIC50. Fill in for each entry.
molecular target: HLA-B5801 (Homo sapiens, UniProt P01889, A329T/C349S/D201E/D98Y/E176V/E187L/E204Q/E69T/G107R/I218V/I90N/K202T/L105A/L119I/N104I/N87E/Q89R/Q94S/R106L/R155S/R180L/R86G/S101N/S121R/S35A/S48A/T118I/V127L/V306I/V36M/Y140S/Y91M); experiment: Competitive peptide binding assay, CIR-B5801; settings: HMy2.CIR-B5801 cells, reference Cy5-[…], class from inhibition at 5 and 15 μM, flow cytometry MFI; read-out: Binding affinity with HLA-B5801
pIC50: −log10 of the molar value. Peptide text beside a SMILES is read from it.

Quote pIC50 reported for CC(C)C[C@H](NC(=O)[C@H](CC(C)C)NC(=O)[C@H](C)NC(=O)[C@H](CCC(N)=O)NC(=O)[C@H](CCCNC(=N)N)NC(=O)[C@@H](NC(=O)[C@H](CCCNC(=N)N)NC(=O)[C@H](CCC(=O)O)NC(=O)CN)C(C)C)C(=O)O [Epitope Y202] (H-GERVRQALL-OH; N-terminus and C-terminus assumed) please.
< 4.82

Quote pIC50 reported for CSCC[C@H](NC(=O)[C@H](CCSC)NC(=O)[C@H](CO)NC(=O)[C@H](Cc1ccccc1)NC(=O)[C@H](Cc1c[nH]cn1)NC(=O)[C@H](CCCCN)NC(=O)[C@H](CCCNC(=N)N)NC(=O)[C@H](CC(C)C)NC(=O)[C@@H](N)Cc1ccc(O)cc1)C(=O)O [Epitope Y28] (H-YLRKHFSMM-OH; N-terminus and C-terminus assumed) please.
< 4.82

Quote pIC50 reported for CC[C@H](C)[C@H](NC(=O)[C@H](CCCNC(=N)N)NC(=O)[C@H](CC(C)C)NC(=O)[C@H](CCSC)NC(=O)[C@H](CC(N)=O)NC(=O)[C@@H]1CCCN1C(=O)[C@H](CCSC)NC(=O)[C@H](C)NC(=O)[C@@H](N)CCCNC(=N)N)C(=O)O [Epitope Y77] (H-RAMPNMLRI-OH; N-terminus and C-terminus assumed) please.
4.82 to 5.30
